Data provenance is ChEMBL document CHEMBL5729292.

# targetUnderTest: Bromodomain-containing protein 4 (Homo sapiens, UniProt O60885)
# experimentalProtocol: Inhibitory Activity Assay of BRD4 Small Molecule Compounds: AlphaScreen kit (Perkin Elmer) was used to detect effect of the compounds on binding of BRD4 bromodomain to acetylated histone H4 polypeptide. […] Each of fusion proteins containing (His)6tag can be recognized and bound by Ni2+. […] The donor microbeads were coated with streptavidin and can bind to biotinylated acetylated H4 polypeptide. The acceptor microbeads were coated with Ni2+ ions and can bind to the BD1 protein with (His)6tag. When the BD1 protein recognized the acetylated H4 polypeptide, the donor microbeads and the acceptor microbeads can be brought closer to a certain distance. Within this range, the donor microbeads can produce singlet oxygen after being irradiated with a 680 nm excitation light, and transfer the singlet oxygen to the acceptor microbeads. After a series of cascade chemical reactions, the acceptor microbeads will generate an emission wave of 520-620 nm, which in turn can be detected a signal. In this experiment, the test system was 20 μL, and the compound needs to be diluted in buffer 1 (20 mM HEPES pH 7.4, 150 mM NaCl, 1 mM dithiothreitol). First, a solution of 20 mM compound was consecutively diluted twice, each in 10 times, totally in 100 times to a concentration of 200 μM. […] The recombinant BD1 protein solution and the acetylated histone H4 polypeptide were diluted in the buffer 2 (20 mM HEPES pH 7.4, 150 mM NaCl, 0.01% Triton X-100, 0.1% bovine serum protein (w/v, Sigma), 1 mM dithiothreitol) to 100 nM and 100 nM respectively, to obtain a 8×BD1 protein working solution and a 4× acetylated histone H4 polypeptide working solution. The donor microbeads and the acceptor microbeads are diluted together in the buffer 2, both in the ratio of 1:100, to obtain a 2× microbead mixed working solution. The plate was added with 2.5 μL of BD1 protein working solution and incubated with the compound for 20 min at room temperature, and then added with 5 μL of acetylated histone H4 polypeptide working solution and incubated at room temperature for 5 min, and finally added with 10 μL of microbead mixed working solution and incubated at room temperature for 60 min. […] IC50 values of the compounds at different concentrations for inhibiting the binding of BD1 protein to acetylated H4 polypeptide were calculated by fitting using GraphPad Prism 5.0 software.
pIC50: −log10 of the molar value.
Measured pIC50, listed per entry.
metric: pIC50

compoundstructurestring=Cc1ccccc1Oc1ccc(NS(C)(=O)=O)cc1-c1cc(C)c2c(=O)[nH]ccn12 val=6.92
compoundstructurestring=Cc1cc(-c2cc(NS(C)(=O)=O)ccc2OC2CCOCC2)n2cn[nH]c(=O)c12 val=6.91
compoundstructurestring=Cc1cc(-c2cc(CS(C)(=O)=O)ccc2Nc2ccc(F)cc2F)n2cc[nH]c(=O)c12 val=6.79
compoundstructurestring=Cc1cc(-c2cc(CS(C)(=O)=O)ccc2Nc2ccccc2)n2cc[nH]c(=O)c12 val=6.86
